- System: Mus musculus
- run.description: Anticonvulsant activity in mouse assessed as protection against maximal electroshock-induced seizures at 300 mg/kg, ip after 4 hrs
- Format: functional, organism-based
- Design: dose 300 mg/kg
Active and inactive are the calls of the source. No cut-off for these calls is given here.
parameter.measured: Activity

CCCCCC(=O)O/N=C(\Cn1ccnc1)c1ccc2ccccc2c1.Cl
inactive
O=C(O/N=C(\Cn1ccnc1)c1ccc2ccccc2c1)c1cccc([N+](=O)[O-])c1
Active
O=C(O/N=C(\Cn1ccnc1)c1ccc2ccccc2c1)c1ccccc1Cl
inactive
O=C(O/N=C(\Cn1ccnc1)c1ccc2ccccc2c1)c1cccc(Br)c1
inactive
COc1ccccc1C(=O)O/N=C(\Cn1ccnc1)c1ccc2ccccc2c1
Active
